Origin of values: patent US20240301071A1

# EXPERIMENTAL TARGET: T1, histidine-tagged human SIRPA v1 (Novoprotein) (human, UniProt P78324 31-370, limits assumed)
# T1 construct: bought, soluble; also called huSIRPA; soluble huSIRPA; not shown: histidine tag
# T1 sequence (P78324 31-370 limits assumed): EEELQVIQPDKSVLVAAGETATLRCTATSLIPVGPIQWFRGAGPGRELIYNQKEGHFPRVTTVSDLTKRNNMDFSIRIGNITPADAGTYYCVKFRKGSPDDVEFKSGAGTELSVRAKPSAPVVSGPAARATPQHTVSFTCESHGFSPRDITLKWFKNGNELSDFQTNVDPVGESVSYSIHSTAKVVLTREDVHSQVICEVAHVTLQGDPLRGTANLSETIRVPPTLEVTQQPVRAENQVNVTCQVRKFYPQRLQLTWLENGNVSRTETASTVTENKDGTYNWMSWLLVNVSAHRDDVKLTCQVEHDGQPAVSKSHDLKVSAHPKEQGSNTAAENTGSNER
# ASSAY PROCEDURE: BLI (Octet), antibody on anti-human IgG Fc sensor, His-huSIRPA in solution, single-curve 1:1 fit
List of Kd values.
Your answer is read as nM, so omit the unit and give the number.

As a guide, the following entries are already answered.
3F9-12 (antibody, human IgG1, V domains shown, also called mAb 3F9-12) VH: EVQLLESGGGLVQPGGSLRLSCAASGFTFSSYAMSWVRQAPGKGLEWVATISEYGGSYTYYAESVKGRFTISRDNSKNTLYLQMNSLRAEDTAVYYCARPPYDDYYGGFRYWGQGTLVTVSS VL: DIQLTQSPSSLSASVGDRVTITCRASKSVSSGGYSYMHWYQQKPGKAPKLLIYLASNLESGVPSRFSGSGSGTDFTLTISSVQPEDFATYYCQHNRELPPTFGQGTKLEIK    0.429
3F9-3 (antibody, human IgG1, V domains shown, also called mAb 3F9-3) VH: EVQLLESGGGLVQPGGSLRLSCAASGFTFSSYAMSWVRQAPGKGLEWVATISEYGGSYTYYAESVKGRFTISRDNSKNTLYLQMNSLRAEDTAVYYCARPPYDDYYGGFAYWGQGTLVTVSS VL: DIQLTQSPSSLSASVGDRVTITCRASKSVSSGGYSYMHWYQQKPGKAPKLLIYLASNLESGVPSRFSGSGSGTDFTLTISSVQPEDFATYYCQHNRELPITFGQGTKLEIK    4.43
3F9-19 (antibody, human IgG1, V domains shown, also called mAb 3F9-19) VH: EVQLLESGGGLVQPGGSLRLSCAASGFTFSSYAMSWVRQAPGKGLEWVATISEYGGSYTYYAESVKGRFTISRDNSKNTLYLQMNSLRAEDTAVYYCARPPYDDYYGGFQYWGQGTLVTVSS VL: DIQLTQSPSSLSASVGDRVTITCRASKSVSSGGYSYMHWYQQKPGKAPKLLIYLASNLESGVPSRFSGSGSGTDFTLTISSVQPEDFATYYCQHNRELPITFGQGTKLEIK    1.29
3F9-21 (antibody, human IgG1, V domains shown, also called mAb 3F9-21) VH: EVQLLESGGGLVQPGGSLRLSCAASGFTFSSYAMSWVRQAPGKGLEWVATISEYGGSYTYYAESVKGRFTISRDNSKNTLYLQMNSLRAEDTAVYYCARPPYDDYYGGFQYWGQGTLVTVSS VL: DIQLTQSPSSLSASVGDRVTITCRASKSVSSGGYSYMHWYQQKPGKAPKLLIYLASNLESGVPSRFSGSGSGTDFTLTISSVQPEDFATYYCQHNRELPTTFGQGTKLEIK    1.03

Prompt line: Consider the binder shown here: 3F9-24 (antibody, human IgG1, V domains shown, also called mAb 3F9-24) VH: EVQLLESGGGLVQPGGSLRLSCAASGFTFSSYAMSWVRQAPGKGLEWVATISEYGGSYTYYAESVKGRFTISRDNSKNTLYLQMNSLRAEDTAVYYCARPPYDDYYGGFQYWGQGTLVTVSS VL: DIQLTQSPSSLSASVGDRVTITCRASKSVSSGGYSYMHWYQQKPGKAPKLLIYLASNLESGVPSRFSGSGSGTDFTLTISSVQPEDFATYYCQHNRELPGTFGQGTKLEIK What is its recorded Kd?
Response line: 1.07

Prompt line: Consider the binder shown here: 3F9-16 (antibody, human IgG1, V domains shown, also called mAb 3F9-16) VH: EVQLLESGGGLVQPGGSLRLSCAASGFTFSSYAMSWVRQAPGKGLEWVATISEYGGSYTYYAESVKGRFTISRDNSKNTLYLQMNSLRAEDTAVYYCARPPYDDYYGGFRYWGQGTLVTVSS VL: DIQLTQSPSSLSASVGDRVTITCRASKSVSSGGYSYMHWYQQKPGKAPKLLIYLASNLESGVPSRFSGSGSGTDFTLTISSVQPEDFATYYCQHNRELPGTFGQGTKLEIK What is its recorded Kd?
Response line: 1.27

Prompt line: Consider the binder shown here: 3F9-5 (antibody, human IgG1, V domains shown, also called mAb 3F9-5) VH: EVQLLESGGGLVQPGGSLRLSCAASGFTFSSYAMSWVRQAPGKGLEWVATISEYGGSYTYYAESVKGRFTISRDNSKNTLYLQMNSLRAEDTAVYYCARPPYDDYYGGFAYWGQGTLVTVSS VL: DIQLTQSPSSLSASVGDRVTITCRASKSVSSGGYSYMHWYQQKPGKAPKLLIYLASNLESGVPSRFSGSGSGTDFTLTISSVQPEDFATYYCQHNRELPTTFGQGTKLEIK What is its recorded Kd?
Response line: 2.95

Prompt line: Consider the binder shown here: 3F9-23 (antibody, human IgG1, V domains shown, also called mAb 3F9-23) VH: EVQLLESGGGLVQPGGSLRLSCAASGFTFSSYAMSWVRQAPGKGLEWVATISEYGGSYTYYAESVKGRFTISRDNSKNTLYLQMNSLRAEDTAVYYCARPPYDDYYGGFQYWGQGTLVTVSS VL: DIQLTQSPSSLSASVGDRVTITCRASKSVSSGGYSYMHWYQQKPGKAPKLLIYLASNLESGVPSRFSGSGSGTDFTLTISSVQPEDFATYYCQHNRELPATFGQGTKLEIK What is its recorded Kd?
Response line: 0.539

Prompt line: Consider the binder shown here: 3F9-9 (antibody, human IgG1, V domains shown, also called mAb 3F9-9) VH: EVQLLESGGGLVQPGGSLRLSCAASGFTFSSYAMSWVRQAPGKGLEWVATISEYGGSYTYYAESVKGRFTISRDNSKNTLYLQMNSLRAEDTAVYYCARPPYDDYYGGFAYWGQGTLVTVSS VL: DIQLTQSPSSLSASVGDRVTITCRASKSVSSGGYSYMHWYQQKPGKAPKLLIYLASNLESGVPSRFSGSGSGTDFTLTISSVQPEDFATYYCQHNRELPWTFGQGTKLEIK What is its recorded Kd?
Response line: 3.38

Prompt line: Consider the binder shown here: 3F9-6 (antibody, human IgG1, V domains shown, also called mAb 3F9-6) VH: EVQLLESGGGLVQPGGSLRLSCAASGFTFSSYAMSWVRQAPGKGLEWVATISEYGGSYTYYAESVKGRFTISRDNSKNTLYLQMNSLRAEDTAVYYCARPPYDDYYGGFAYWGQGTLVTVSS VL: DIQLTQSPSSLSASVGDRVTITCRASKSVSSGGYSYMHWYQQKPGKAPKLLIYLASNLESGVPSRFSGSGSGTDFTLTISSVQPEDFATYYCQHNRELPVTFGQGTKLEIK What is its recorded Kd?
Response line: 1.65

Prompt line: Consider the binder shown here: 3F9-20 (antibody, human IgG1, V domains shown, also called mAb 3F9-20) VH: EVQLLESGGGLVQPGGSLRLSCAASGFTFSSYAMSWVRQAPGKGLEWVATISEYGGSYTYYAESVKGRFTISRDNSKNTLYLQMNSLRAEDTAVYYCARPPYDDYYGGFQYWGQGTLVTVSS VL: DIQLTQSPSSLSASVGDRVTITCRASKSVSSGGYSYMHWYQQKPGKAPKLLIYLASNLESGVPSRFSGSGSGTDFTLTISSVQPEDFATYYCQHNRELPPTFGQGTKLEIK What is its recorded Kd?
Response line: 0.85
